- studySystem: cholesterol ester transfer protein (CETP) (Homo sapiens)
- Construct: CETP is obtained from human plasma in partially purified form
- Sequence (P11597 18-493): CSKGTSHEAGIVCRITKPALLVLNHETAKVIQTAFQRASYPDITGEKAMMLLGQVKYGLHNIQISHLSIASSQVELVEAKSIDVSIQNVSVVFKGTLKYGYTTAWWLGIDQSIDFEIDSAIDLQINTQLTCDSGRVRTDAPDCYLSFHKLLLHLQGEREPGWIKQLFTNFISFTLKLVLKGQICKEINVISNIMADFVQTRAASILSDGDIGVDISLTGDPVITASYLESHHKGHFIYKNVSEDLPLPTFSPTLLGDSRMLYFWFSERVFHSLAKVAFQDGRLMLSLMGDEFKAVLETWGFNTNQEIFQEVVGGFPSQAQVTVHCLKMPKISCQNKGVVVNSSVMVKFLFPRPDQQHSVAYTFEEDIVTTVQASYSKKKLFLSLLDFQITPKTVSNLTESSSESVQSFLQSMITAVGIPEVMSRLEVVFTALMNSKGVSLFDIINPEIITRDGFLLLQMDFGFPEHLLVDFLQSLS
- assayName: CETP inhibition testing (transfer of 3H-cholesterol ester from HDL to biotinylated LDL)
- testParameters: substance concentration at which transfer is reduced by half; 18 h at 37° C.
For each of the molecules below, state its IC50.
Respond numerically; units are nM and should not be typed.

For this molecule ( CC(C)c1nc2c(c(-c3ccc(F)cc3)c1C(F)c1ccc(C(F)(F)F)cc1)C(O)c1ccccc1-2 (stereo not drawn) ), measured IC50 is 60

For this molecule ( OC(c1ccc(Cl)c(C(F)(F)F)c1)c1c(C2CCCC2)nc2c(c1-c1ccc(F)cc1)C(O)c1ccccc1-2 (stereo not drawn) ), measured IC50 is 240

For this molecule ( CC(C)c1nc2c(c(-c3ccc(F)cc3)c1C(F)c1ccc(C(F)(F)F)cc1)C(O)c1cc(Cl)c(Cl)cc1-2 (stereo not drawn) ), measured IC50 is 300
